Tested on: MA 104 cells
assay_text: CC50 in the HSV II / MA 104 XTT assay
Type: cell-based
quantity_measured: CC50

What does the data say about its CC50? Entry: `CC(C)(C)C(=O)OCOP(=O)(COCCn1cnc2c(N)ncnc21)OCOC(=O)C(C)(C)C`
> 10 µM

====

Test system: uninfected cells (MA 104 cells)
assay_text: Toxicity of the compounds to uninfected cells (CC50)
Format: cell-based
protocol_conditions: concentration that kills 50% of uninfected cells
# CC50 per entry

[
  {
    "compound": "Nc1ncnc2c1ncn2CCOCP(=O)(NCC(=O)OCc1ccccc1)NCC(=O)OCc1ccccc1 [Ex 4, bis(glycyl benzyl ester)PMEA]",
    "experimental_system": "uninfected cells (MA 104 cells)",
    "quantity_measured": "CC50",
    "assay_result": "> 100 µM"
  }
]

Now look at this entry.
Please give the measured CC50 for this compound: CC(NP(=O)(COCCn1cnc2c(N)ncnc21)NC(C)C(=O)OCc1ccccc1)C(=O)OCc1ccccc1 (centres unmarked) [Ex 1, bis(alanyl benzyl ester)PMEA]
> 100 µM

====

Test system: HSV II
assay_text: Inhibition of cytopathic effects by HSV II in MA 104 cells, XTT readout
Assay type: cell-based
protocol_conditions: CPE determined with XTT
quantity_measured: IC50
Note: a bare number is incomplete; add the unit.

Find the recorded IC50 belonging to `CC(C)(C)C(=O)OCOP(=O)(COCCn1cnc2c(N)ncnc21)OCOC(=O)C(C)(C)C` and report it.
0.5 µM

Okay, and `Nc1ncnc2c1ncn2CCOCP(=O)(O)O` ?
19.3 µM

====

System: MA 104 cells
assay_text: CC50 in the HSV II / MA 104 XTT assay
Format: cell-based
protocol_conditions: MA 104 cells, XTT assay of Example 4; read-out: CC50
quantity_measured: CC50 (mM)
Reply numerically in mM, unit not repeated.

Sample `Nc1ncnc2c1ncn2CCOCP(=O)(O)O` — what was its CC50?
2
